Tested on: Pasteurella multocida
Method Description: Ratio of MIC for Pasteurella multocida AL435 to MIC for TolC deficient Pasteurella multocida pm1980
Format: functional
Measured Property: Ratio

Some solved cases for reference:
COc1cc(Cc2cnc(N)nc2N)cc(OC)c1OC [TRIMETHOPRIM] :: 4
C[C@H](CCC(=O)O)[C@H]1CC[C@H]2[C@@H]3CC[C@@H]4C[C@H](O)CC[C@]4(C)[C@H]3C[C@H](O)[C@]12C [DEOXYCHOLIC ACID] :: 1
CO[C@H]1/C=C/O[C@@]2(C)Oc3c(C)c(O)c4c(O)c(c(/C=N/N5CCN(C)CC5)c(O)c4c3C2=O)NC(=O)/C(C)=C\C=C\[C@H](C)[C@H](O)[C@@H](C)[C@@H](O)[C@@H](C)[C@H](OC(C)=O)[C@@H]1C [RIFAMPIN] :: 64

# input for lookup
Req: Suppose we examine the molecule CCCCc1ccc(C(=O)O)nc1 [FUSARIC ACID] ; what Ratio value has been reported?
Resp: 2
